Measured target: UniProt:P01116
Sequence (P01116 1-188 isoform P01116-2): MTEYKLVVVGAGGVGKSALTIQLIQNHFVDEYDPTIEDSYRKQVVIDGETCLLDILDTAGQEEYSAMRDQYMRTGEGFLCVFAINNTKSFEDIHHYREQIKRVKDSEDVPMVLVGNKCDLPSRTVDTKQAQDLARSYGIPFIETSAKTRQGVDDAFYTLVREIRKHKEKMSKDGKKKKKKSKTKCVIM
Protocol description: Binding to KRAS by surface plasmon resonance (SPR), dissociation constant KD
Measurement conditions: Single Cycle Kinetics
Recorded measurements of Kd, one per entry
Measure: Kd (nM)

CCO[C@@H]1C[C@H]2C(=O)NC3(CC(C)(C)C3)C(=O)N(C)[C@@H](C3CCCC3)C(=O)N(C)[C@H](C(=O)N(C)C)CC(=O)N(C)[C@@H]([C@H](C)OC)C(=O)N[C@@H]([C@@H](C)CC)C(=O)N(C3CC3)CC(=O)N(C)[C@H]3C/C=C\CCN(C3=O)[C@@H](Cc3ccc(C(F)(F)F)cc3)C(=O)N(C)CC(=O)N[C@@H](CCc3cc(F)c(C(F)(F)F)c(F)c3)C(=O)N2C1 [PP3175] | 0.31
CC[C@H](C)[C@@H]1NC(=O)[C@H](CC(C)C)N(C)C(=O)C[C@@H](C(=O)N2CCOCC2)N(C)C(=O)[C@H](C2CCCC2)N(C)C(=O)C2(CCC2)NC(=O)[C@@H]2[C@H](O)CCN2C(=O)[C@H](CCc2cc(F)c(C(F)(F)F)c(F)c2)NC(=O)CN(C)C(=O)[C@H](Cc2ccc(C(F)(F)F)cc2)N2CCCCC[C@@H](C2=O)N(C)C(=O)CN(C)C1=O [PP0873] | 0.86
CCCOC[C@H]1C(=O)N[C@@H]([C@@H](C)CC)C(=O)N(CCC)CC(=O)N(C)[C@H]2C/C=C\CCN(C2=O)[C@@H](Cc2ccc(C(F)F)cc2)C(=O)N(C)CC(=O)N[C@@H](CCc2cc(F)c(C(F)(F)F)c(F)c2)C(=O)N2C[C@H](OC3CCC3)C[C@H]2C(=O)N(C)C2(CCC2)C(=O)N(C)[C@@H](C(CC)CC)C(=O)N(C)[C@H](C(=O)N(C)C)CC(=O)N1C [PP3502] | 0.5
CCC[C@H]1C(=O)N[C@@H](C2CCCC2)C(=O)N(C)CC(=O)N(C)[C@H]2C/C=C\CCN(C2=O)[C@@H](Cc2ccc(C)cc2)C(=O)N(C)CC(=O)N[C@@H](CCc2ccc(C(F)(F)F)c(Cl)c2)C(=O)N2CC3(CC3)C[C@H]2C(=O)N(C)C2(CCC2)C(=O)N(C)[C@@H](CC(C)(C)C)C(=O)N(C)[C@H](C(=O)N(C)C)CC(=O)N1C [PP3328] | 0.026
CCc1cc(CC[C@@H]2NC(=O)CN(C)C(=O)[C@H](Cc3ccc(C(F)F)cc3)N3CC/C=C\C[C@@H](C3=O)N(C)C(=O)CN(C)C(=O)[C@H]([C@@H](C)OC)NC(=O)[C@H](CC)N(C)C(=O)C[C@@H](C(=O)N(C)C)N(C)C(=O)[C@H](C(CC)CC)N(C)C(=O)C3(CCC3)N(C)C(=O)[C@@H]3C[C@@H](OC(C)C)CN3C2=O)ccc1C(F)(F)F [PP3500] | 0.31
CCO[C@@H]1C[C@H]2C(=O)NC3(CC(C)(C)C3)C(=O)N(C)[C@@H](C3CCCC3)C(=O)N(C)[C@H](C(=O)N(C)CC)CC(=O)N(C)[C@@H]([C@H](C)OC)C(=O)N[C@@H]([C@@H](C)CC)C(=O)N3CCC[C@H]3C(=O)N(C)[C@H]3C/C=C\CCN(C3=O)[C@@H](Cc3ccc(C)cc3)C(=O)N(C)CC(=O)N[C@@H](CCc3ccc(C(F)(F)F)c(Cl)c3)C(=O)N2C1 [PP3165] | 1.9
